Field: koff. Provide a value for each of the binders that follow.
Target desc: T1, biotinylated native human ApoC3 (human, UniProt P02656 21-99, biotinylated (site not stated))
T1 construct: also called biotinylated human ApoC3
T1 sequence (P02656 21-99): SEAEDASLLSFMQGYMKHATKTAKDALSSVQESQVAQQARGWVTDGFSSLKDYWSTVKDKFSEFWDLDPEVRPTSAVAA
Experiment: SPR, IgG1 over biotinylated ApoC3 on SA chip, pH 5.5
Quick note: give the figure in s⁻¹, leave out the unit.

Ask: # lookup: koff of mAb15 (antibody, IgG1, V domains shown, Produced as full length IgG1 (kappa) in ExpiCHO-S cells; also called humanized anti-ApoC3 antibody mAb15) VH: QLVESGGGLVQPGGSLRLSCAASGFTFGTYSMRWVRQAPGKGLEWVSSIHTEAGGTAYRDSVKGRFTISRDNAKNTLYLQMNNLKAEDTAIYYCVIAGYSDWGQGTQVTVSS VL: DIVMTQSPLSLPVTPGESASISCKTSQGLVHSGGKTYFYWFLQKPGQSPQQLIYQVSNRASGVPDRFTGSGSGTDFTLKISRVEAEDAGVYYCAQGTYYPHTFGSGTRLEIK
Reply: 0.000249

Ask: Return reported koff; argument: mAb10 (antibody, IgG1, V domains shown, Produced as full length IgG1 (kappa) in ExpiCHO-S cells; also called humanized anti-ApoC3 antibody mAb10) VH: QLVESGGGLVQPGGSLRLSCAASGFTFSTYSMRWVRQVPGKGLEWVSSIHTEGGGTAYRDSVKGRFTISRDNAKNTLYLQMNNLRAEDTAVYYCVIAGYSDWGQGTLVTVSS VL: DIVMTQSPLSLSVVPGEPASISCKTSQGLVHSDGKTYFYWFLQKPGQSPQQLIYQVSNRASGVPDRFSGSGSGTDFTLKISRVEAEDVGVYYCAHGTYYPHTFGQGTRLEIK
Reply: 0.000113

Ask: Which koff reading was recorded for the binder mAb20 (antibody, IgG1, V domains shown, Produced as full length IgG1 (kappa) in ExpiCHO-S cells; also called humanized anti-ApoC3 antibody mAb20) VH: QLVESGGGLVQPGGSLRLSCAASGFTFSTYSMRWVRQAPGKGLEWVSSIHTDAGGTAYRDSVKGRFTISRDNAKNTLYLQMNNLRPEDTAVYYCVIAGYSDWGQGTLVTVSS VL: DIVMTQSPGSLSVTPGEPASISCKTSQGLVHSGGKTYFYWFLQKPGQSPQQLIYQVSNRASGVPDRFTGSGSGTDFTLKISGVEAEDAGVYYCAHGTYYPHTFGQGTRLEIK ?
Reply: 0.0214
